# credit: patent US9815796B2

Biological target: Rhesus PDE2A3 (Macaca mulatta, UniProt B3VTJ2)
Sequence (B3VTJ2 1-941): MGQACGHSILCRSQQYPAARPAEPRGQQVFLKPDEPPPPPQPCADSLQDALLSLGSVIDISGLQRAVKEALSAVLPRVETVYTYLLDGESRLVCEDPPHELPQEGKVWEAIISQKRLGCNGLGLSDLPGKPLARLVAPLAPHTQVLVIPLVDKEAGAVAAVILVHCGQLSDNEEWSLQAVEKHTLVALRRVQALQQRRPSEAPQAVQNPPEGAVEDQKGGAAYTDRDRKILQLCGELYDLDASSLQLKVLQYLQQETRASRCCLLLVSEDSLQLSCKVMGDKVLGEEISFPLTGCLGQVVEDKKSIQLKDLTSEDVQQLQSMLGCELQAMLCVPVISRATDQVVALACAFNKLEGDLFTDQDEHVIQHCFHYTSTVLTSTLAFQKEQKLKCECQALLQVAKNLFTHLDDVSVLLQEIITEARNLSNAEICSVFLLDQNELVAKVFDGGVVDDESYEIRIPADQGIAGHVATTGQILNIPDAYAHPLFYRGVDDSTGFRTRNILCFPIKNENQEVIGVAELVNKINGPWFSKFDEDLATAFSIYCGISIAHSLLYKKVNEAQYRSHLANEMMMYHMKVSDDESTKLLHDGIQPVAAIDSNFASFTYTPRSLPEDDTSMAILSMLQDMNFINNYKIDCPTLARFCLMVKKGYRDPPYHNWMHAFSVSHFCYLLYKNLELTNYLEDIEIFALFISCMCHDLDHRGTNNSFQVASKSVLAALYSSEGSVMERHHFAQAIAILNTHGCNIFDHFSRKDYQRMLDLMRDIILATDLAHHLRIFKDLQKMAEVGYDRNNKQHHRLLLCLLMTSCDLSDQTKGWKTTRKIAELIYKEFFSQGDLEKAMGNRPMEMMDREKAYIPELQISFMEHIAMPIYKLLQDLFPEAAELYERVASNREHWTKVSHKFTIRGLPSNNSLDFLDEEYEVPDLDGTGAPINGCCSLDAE
Assay: PDE2 fluorescence polarization (IMAP FP) inhibition assay, rhesus enzyme
Format: biochemical, rhesus macaque
Conditions: Rhesus PDE2, Lab A; read-out: Rhesus PDE2 Ki (nM) - Lab A
Procedure: The activity of the compounds in accordance with the present invention as PDE2 inhibitors may be readily determined using a fluorescence polarization (FP) methodology (Huang, W., et al., J. Biomol Screen, 2002, 7: 215). In a typical experiment the PDE2 inhibitory activity of the compounds of the present invention was determined in accordance with the following experimental method. […] 0% of inhibition is determined by using DMSO (1% final concentrations). […]
Entries and their measured log10 of Ki follow.
reportedProperty: log10 of Ki (log10 of the value in nM)

> print(dat)
                                    molecule                        experimentaltarget  reportedproperty  reading
 1  O=C(NC1(c2ccc(SC(F)(F)F)cc2)CC1)c1cc(=O)[nH]c(-c2ccccc2)n1 [Example 159]  Rhesus PDE2A3 (Macaca mulatta, UniProt B3VTJ2)       log10 of Ki     0.88
 2  Cc1nc(C(=O)N[C@@H](c2ccc(C(F)(F)F)c(F)c2)C2CC2)cc(=O)[nH]1 [Example 68]  Rhesus PDE2A3 (Macaca mulatta, UniProt B3VTJ2)       log10 of Ki     1.41
 3  CC(NC(=O)c1cc(=O)[nH]c(-c2ccccc2)n1)c1ncc(C(F)(F)F)cn1 (stereo not shown) [Example 170]  Rhesus PDE2A3 (Macaca mulatta, UniProt B3VTJ2)       log10 of Ki     3.37
 4  O=C(NC1(c2ccc(OC(F)(F)F)c(F)c2)CC1)c1cc(=O)[nH]c(C2CC2)n1 [Example 201]  Rhesus PDE2A3 (Macaca mulatta, UniProt B3VTJ2)       log10 of Ki     0.64
 5  CC(NC(=O)c1cc(=O)[nH]c(C2CC2)n1)c1ccc(C(F)(F)F)cc1Cl (stereo not shown) [Example 233]  Rhesus PDE2A3 (Macaca mulatta, UniProt B3VTJ2)       log10 of Ki     2.09
 6  C[C@@H](NC(=O)c1cc(=O)[nH]c(-c2ncccn2)n1)c1ccc(CC(F)(F)F)cc1 [Example 107]  Rhesus PDE2A3 (Macaca mulatta, UniProt B3VTJ2)       log10 of Ki     1.32
 7  CC(C)(C)[C@@H](NC(=O)c1cc(=O)[nH]c(-c2ccccc2)n1)c1ccc(C(F)(F)F)cc1 [Example 337]  Rhesus PDE2A3 (Macaca mulatta, UniProt B3VTJ2)       log10 of Ki    -0.40
 8  CC(NC(=O)c1cc(=O)[nH]c(-c2ccccc2)n1)c1ccc(-n2cncn2)cc1 (stereo not shown) [Example 363]  Rhesus PDE2A3 (Macaca mulatta, UniProt B3VTJ2)       log10 of Ki     2.39
 9  C[C@@H](NC(=O)c1cc(=O)[nH]c(-c2ncccn2)n1)c1ccc(-c2ccccc2)cc1 [Example 287]  Rhesus PDE2A3 (Macaca mulatta, UniProt B3VTJ2)       log10 of Ki     1.65
10  COCc1nc(C(=O)N[C@@H](c2ccc(C(F)(F)F)cc2)C2CC2)cc(=O)[nH]1 [Example 118]  Rhesus PDE2A3 (Macaca mulatta, UniProt B3VTJ2)       log10 of Ki     1.88
11  O=C(NC1(c2ccc(C(F)(F)F)cc2)CCCC1)c1cc(=O)[nH]c(C2CC2)n1 [Example 197]  Rhesus PDE2A3 (Macaca mulatta, UniProt B3VTJ2)       log10 of Ki     1.79
12  C[C@@H](NC(=O)c1cc(=O)[nH]c(C2CC2)n1)c1ccc(C(F)(F)F)c(Cl)c1 [Example 232]  Rhesus PDE2A3 (Macaca mulatta, UniProt B3VTJ2)       log10 of Ki     1.46
13  O=C(N[C@@H](c1ccc(C(F)(F)F)c(F)c1)C1CC1)c1cc(=O)[nH]c(C2CC2)n1 [Example 210]  Rhesus PDE2A3 (Macaca mulatta, UniProt B3VTJ2)       log10 of Ki     0.78
14  O=C(N[C@@H](c1ccc(SC(F)(F)F)cc1)C1CC1)c1cc(=O)[nH]c(-c2ccccc2)n1 [Example 178]  Rhesus PDE2A3 (Macaca mulatta, UniProt B3VTJ2)       log10 of Ki     0.52
15  Cc1cc(C(F)(F)F)ccc1CNC(=O)c1cc(=O)[nH]c(C2CC2)n1 [Example 228]  Rhesus PDE2A3 (Macaca mulatta, UniProt B3VTJ2)       log10 of Ki     3.16
16  Cc1cc([C@@H](C)NC(=O)c2cc(=O)[nH]c(-c3ccccc3)n2)ccc1C(F)(F)F [Example 189]  Rhesus PDE2A3 (Macaca mulatta, UniProt B3VTJ2)       log10 of Ki     1.00

---

Biological target: human PDE2A1 (Homo sapiens (Human))
Sequence (O00408 other isoform, or with tags, fused parts or gaps): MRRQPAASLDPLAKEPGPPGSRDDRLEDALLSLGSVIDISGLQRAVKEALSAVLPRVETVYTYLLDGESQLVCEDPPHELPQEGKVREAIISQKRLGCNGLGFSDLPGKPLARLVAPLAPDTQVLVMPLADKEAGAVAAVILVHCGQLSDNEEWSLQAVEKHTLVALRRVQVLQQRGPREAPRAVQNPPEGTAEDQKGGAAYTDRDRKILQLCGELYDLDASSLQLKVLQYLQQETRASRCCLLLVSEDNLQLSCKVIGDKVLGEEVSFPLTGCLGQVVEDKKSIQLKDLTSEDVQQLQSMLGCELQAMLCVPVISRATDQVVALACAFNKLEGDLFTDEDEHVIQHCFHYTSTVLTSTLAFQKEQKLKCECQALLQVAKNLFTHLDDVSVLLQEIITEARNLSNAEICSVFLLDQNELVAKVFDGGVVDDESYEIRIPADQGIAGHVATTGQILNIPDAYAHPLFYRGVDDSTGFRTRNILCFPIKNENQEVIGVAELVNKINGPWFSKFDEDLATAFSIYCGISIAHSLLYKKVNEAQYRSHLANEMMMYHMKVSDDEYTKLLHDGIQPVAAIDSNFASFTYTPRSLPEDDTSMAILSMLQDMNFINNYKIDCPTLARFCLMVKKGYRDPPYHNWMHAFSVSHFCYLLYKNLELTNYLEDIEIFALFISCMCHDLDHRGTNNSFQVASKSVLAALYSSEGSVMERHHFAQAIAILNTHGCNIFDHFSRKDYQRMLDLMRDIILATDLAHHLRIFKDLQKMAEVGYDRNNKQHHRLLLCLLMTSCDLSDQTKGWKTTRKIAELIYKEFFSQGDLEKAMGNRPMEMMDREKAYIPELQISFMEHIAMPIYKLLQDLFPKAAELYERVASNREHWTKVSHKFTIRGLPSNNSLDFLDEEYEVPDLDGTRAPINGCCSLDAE
Assay: IMAP FP PDE selectivity panel, human PDE2A1
Type: biochemical
Conditions: Human PDE2, Lab B; read-out: Human PDE2 Ki (nM) - Lab B
Could you mark each record yes if its Ki falls strictly under 20 nM, and no if it equals or exceeds it?

> print(dat)
                                    compound  classlabel
 1  C[C@@H](NC(=O)c1cc(=O)[nH]c(-c2ncccn2)n1)c1ccc(SC(F)(F)F)c(F)c1         yes
 2  CC1([C@@H](NC(=O)c2cc(=O)[nH]c(-c3ncccn3)n2)c2ccc(C(F)(F)F)cc2)CC1         yes
 3  Cc1nc(C(=O)N[C@H](C)c2ccc(C(F)(F)F)cc2)cc(=O)[nH]1          no
 4  CC(C)[C@@H](NC(=O)c1cc(=O)[nH]c(-c2ncccn2)n1)c1ccc(C2CC2)c(F)c1         yes
 5  CC1Cc2cc(C(C)NC(=O)c3cc(=O)[nH]c(-c4ccccc4)n3)ccc2O1 (stereo not drawn)          no
 6  CC[C@@H](NC(=O)c1cc(=O)[nH]c(-c2ncccn2)n1)c1ccc(S(F)(F)(F)(F)F)cc1         yes
 7  CC1([C@@H](NC(=O)c2cc(=O)[nH]c(-c3ncccn3)n2)c2ccc(C(F)(F)F)c(F)c2)CC1         yes
 8  Cc1nc(C(=O)N[C@@H](c2ccc(S(F)(F)(F)(F)F)cc2)C2(C)CC2)cc(=O)[nH]1         yes
 9  C[C@@H](NC(=O)c1cc(=O)[nH]c(-c2ncccn2)n1)c1ccc(C(F)(F)F)c(F)c1         yes
10  Cc1nc(C(=O)N[C@@H](c2ccc(OC(F)F)c(F)c2)C2CC2)cc(=O)[nH]1          no
11  Cc1nc(C(=O)N[C@@H](c2ccc(S(F)(F)(F)(F)F)cc2)C2CC2)cc(=O)[nH]1         yes
12  CC(C)(C)[C@@H](NC(=O)c1cc(=O)[nH]c(-c2ncccn2)n1)c1ccc(C2CC2)c(F)c1         yes
13  CCc1nc(C(=O)NC2(c3ccc(OC(F)(F)F)c(F)c3)CC2)cc(=O)[nH]1         yes
14  CC(C)(NC(=O)c1cc(=O)[nH]c(-c2ncccn2)n1)c1ccc2c(c1)OC(F)(F)O2          no
15  COc1ccc(Cc2nc(C(=O)N[C@@H](c3ccc(OC(F)(F)F)cc3)C3CC3)cc(=O)[nH]2)cc1F         yes
16  CC(C)[C@@H](NC(=O)c1cc(=O)[nH]c(-c2ccccc2)n1)c1ccc(SC(F)(F)F)cc1         yes
17  Cc1nc(C(=O)N[C@H](C)c2ccc(C3CC3)cc2)cc(=O)[nH]1          no
18  CC(NC(=O)c1cc(=O)[nH]c(-c2ccccc2)n1)c1ccc(C(C)(C)C(F)(F)F)cc1 (single isomer, unassigned) [Example 699]          no
19  CC[C@@H](NC(=O)c1cc(=O)[nH]c(-c2ncccn2)n1)c1ccc(C(F)(F)F)c(F)c1         yes
20  CC(C)(NC(=O)c1cc(=O)[nH]c(-c2ncccn2)n1)c1ccc(SC(F)(F)F)cc1          no
21  CC(C)(C)[C@@H](NC(=O)c1cc(=O)[nH]c(-c2ncccn2)n1)c1ccc(C(F)(F)F)cc1F         yes
22  Cc1nc(C(=O)NC2(c3ccc(OC(F)(F)F)c(F)c3)CC2)cc(=O)[nH]1         yes
23  CC(C)(C)[C@@H](NC(=O)c1cc(=O)[nH]c(-c2ncccn2)n1)c1ccc(CC(F)(F)F)cc1          no
24  C[C@@H](NC(=O)c1cc(=O)[nH]c(C2CC2)n1)c1cc(F)c(C(F)(F)F)cc1F          no
25  CC(NC(=O)c1cc(=O)[nH]c(C2CC2)n1)c1ccc(C(C)(C)C(F)(F)F)cc1 (single isomer, unassigned) [Example 696]          no
26  Cc1nc(C(=O)N[C@@H](c2ccc(C(F)F)cc2)C(C)C)cc(=O)[nH]1          no
27  CC(C)(C)[C@@H](NC(=O)c1cc(=O)[nH]c(-c2ncccn2)n1)c1ccc2c(c1)OC(F)(F)O2         yes
28  CC(C)(C)[C@@H](NC(=O)c1cc(=O)[nH]c(-c2ncccn2)n1)c1ccc(OC(F)F)cc1          no
